# test-description: DPPH radical scavenging assay
# experimental-context: 30 min, 517 nm
Parameter IC50 DPPH: see the listing below.

As a guide, the following entries are already answered.
CCCCCCCCCCCCCCCC | >100 µg/mL
O=c1c2c(O)cc(O)cc2oc2oc3cc(O)ccc3c12 | >100 µg/mL
CC[C@H](/C=C/[C@@H](C)[C@H]1CC[C@H]2[C@@H]3CC=C4C[C@@H](O[C@@H]5O[C@H](CO)[C@@H](O)[C@H](O)[C@H]5O)CC[C@]4(C)[C@H]3CC[C@]12C)C(C)C [Compound 7, stigmasterol glucoside] | >100 µg/mL
CO[C@H]1[C@H](O)[C@@H](O)[C@@H](O)[C@H](O)[C@@H]1O | >100 µg/mL
CCCCCCCCCCCCCCCCCCCCCCCO | >100 µg/mL

Request: Please look up its IC50 DPPH: O=c1c(-c2ccc(O)cc2)coc2cc(O[C@@H]3O[C@H](CO)[C@@H](O)[C@H](O)[C@H]3O)cc(O)c12
Result: 99.89 ± 1.26 µg/mL

Request: Do the same for O=C1O[C@H]([C@@H](O)CO)C(O)=C1O [Ascorbic acid, reference compound] please
Result: 4.08 ± 1.04 µg/mL
